# EXPERIMENTAL PROTOCOL: gradient 5% acetonitrile 3 min, to 50% in 2 min, to 85% in 15 min, held 3 min, 100 µL/min
# MEASUREMENT SETUP: column: Zorbax Extend-C18 2.1 x 50 mm; eluents: water / acetonitrile, 0.1% formic acid
MEASURE NAME: RP-LC retention time (s)

O=C(NCc1ccc(Cl)cc1)C1CCN(c2cnc(N3CCCC3)nc2)CC1 ... 712
Cc1nc(NC(=O)C2CCCN(c3ccc(-n4cccn4)nn3)C2)sc1C (stereo not drawn) ... 699
Cc1cccnc1NC(=O)C1c2ccccc2C(=O)N(Cc2ccccc2)C12CCCC2 (stereo not drawn) ... 782
O=c1ccc(-c2cccs2)nn1CCNS(=O)(=O)c1ccc(F)c(Cl)c1 ... 796
O=C(CCc1c[nH]c2ccccc12)N1CCn2cnnc2C1 ... 778
COC(=O)c1cc(S(=O)(=O)N2CCCC2C(=O)Nc2nc(C)cs2)cn1C (stereo not drawn) ... 791
Cc1ccc(NC(=O)N2CCC3(CC2)NC(=O)c2ccccc2O3)cc1F ... 799
CC(C)(C)c1ccc(-c2nc(N3CCOCC3)c3ccccc3n2)cc1 ... 821

----------
# EXPERIMENTAL PROTOCOL: gradient 5% acetonitrile 3 min, to 50% in 2 min, to 85% in 15 min, held 3 min, 100 µL/min
# MEASUREMENT SETUP: column: Zorbax Extend-C18 2.1 x 50 mm; eluents: water / acetonitrile, 0.1% formic acid
MEASURE NAME: RP-LC retention time (s)

# annotated cases, reported RP-LC retention time shown
O=C(Nc1ccc2c(c1)OCO2)C(=O)c1cn(CC(=O)N2CCCCC2)c2ccccc12 ... 1000
CCCS(=O)(=O)c1nc2ccc(NS(=O)(=O)c3ccc4c(c3)OCCO4)cc2s1 ... 888
Fc1ccc(Nc2c(-c3ccc(Br)cc3)nc3cnccn23)cc1 ... 980
O=C(NCc1ccc(F)cc1)Nc1nnc(-c2ccco2)o1 ... 706

a = Cc1ccc(-c2cn3c(CC(=O)Nc4cccc(C#N)c4)csc3n2)cc1C
b = CCn1c(=O)n(Cc2cccc(Cl)c2)c(=O)c2cnc(-c3ccc(OC)cc3)nc21
c = CCN1CCN(CCNC(=O)CCCn2c3ccccc3c3cnn(C)c(=O)c32)CC1
Descending sort on RP-LC retention time required. Write the labels out in the order the request specifies.
b, a, c
(b: 1340 s, a: 855 s, c: 579 s)

a = Cc1ccc(N2CC(c3noc(-c4ccc(C)c(F)c4)n3)CC2=O)cc1 (configuration not stated)
b = Cc1ccc(CNC(=O)C2CCN(c3nc4cccnc4s3)CC2)o1
Lower RP-LC retention time: a or b ? Let me know the label of the one you choose.
b
(b: 704 s, a: 1100 s)

----------
# EXPERIMENTAL PROTOCOL: gradient 5% acetonitrile 3 min, to 50% in 2 min, to 85% in 15 min, held 3 min, 100 µL/min
# MEASUREMENT SETUP: column: Zorbax Extend-C18 2.1 x 50 mm; eluents: water / acetonitrile, 0.1% formic acid
MEASURE NAME: RP-LC retention time (s)

CSc1ccc(-c2nc3cnccn3c2Nc2c(C)cccc2C)cc1 ... 966
COc1cc(C(=O)N2CCN(c3cc(-c4cccs4)[nH]n3)CC2)cc(OC)c1OC ... 699

P = c1ccc(-c2cnn3cc(-c4ccc(OCCN5CCOCC5)cc4)cnc23)cc1
Q = COc1cccc(-c2nc(C3CCN(S(=O)(=O)c4cc(C)c(C)cc4C)CC3)no2)c1
R = CN1CCN(CC2(O)CCC3(CCN(C(=O)c4ccsc4)CC3)CC2)CC1
Number of compounds to sort: 3. Sort criterion: RP-LC retention time, ascending. Write the labels out in the order the request specifies.
R, P, Q

a = CC(=O)N1CCC(CC(=O)N(C)CC2(C)CCOCC2)CC1
b = CCCOc1ccc(C2C(C(=O)N3CCOCC3)=C(C)NC3=C2C(=O)CCC3)cc1OC (stereo unspecified)
Could you kindly indicate whether a or b has the higher RP-LC retention time value? Let me know the label of the one you choose.
b
(b: 964 s, a: 594 s)

Values were extracted from the METLIN SMRT retention time set (Domingo-Almenara et al. 2019).
